Each recorded value in this set is attributed to PubChem BioAssay AID1159580.

assay: chemical genetic growth profiling, strain panel (AID 1159580);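 further: tested at 20 µM; growth read once vehicle control cultures reached saturation at 30 °C; 1 = growth at the plate median or of vehicle wells; lower values mean less growth of the strain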; conditions: S. cerevisiae deletion strains, growth OD, locus YOR106W, strain vam3, hits give low values
In all, about 5,500 compounds went through this assay and about 2,000 (36%) were called active. Inconclusive results (about 18%) are left out. The list shows a part of the results.
reported.metric: normalized growth

> print(dat)
                                   compound    reported.metric  value
1  CO/N=C(\C(=O)NC1C(=O)N2C(C(=O)O)=C(COC(N)=O)CSC12)c1ccco1 (configuration not stated)  normalized growth  0.951
2  CC(C)C(C)/C=C/C(C)C1CCC2C3=CC=C4CC(O)CCC4(C)C3CCC21C (configuration not stated)  normalized growth  0.889
3  CC(=O)OC1CCC2(C)C(=CC=C3C2CCC2(C)C3CCC2C(C)/C=C/C(C)C(C)C)C1(C)C (configuration not stated)  normalized growth   1.02
4           Cc1cc(-c2ccccc2)nnc1NCCN1CCOCC1  normalized growth  0.961
5             COc1c(OC)c2occc2c2oc(=O)ccc12  normalized growth  0.946
6  CO/N=C(\C(=O)N[C@@H]1C(=O)N2C(C(=O)O)=C(COC(C)=O)CS[C@H]12)c1csc(N)n1  normalized growth  0.997
7    OCCOCCN1CCN(C2=Nc3ccccc3Sc3ccccc32)CC1  normalized growth  0.997
